Examples of binders with documented optical density follow.
- tested_target: T1, biotinylated goat anti-human kappa light chain
- T1 construct: positive control of the ELISA
- experiment_description: ELISA, positive control; also: test concentration or dose not given here
Please answer using the number first and the unit second.

binder	optical density
371_F10 (antibody, V domains shown, Group III) VH: EVQLLESGGGLVQPGGSLRLSCAASGFTFDSYGMNWVRQAPGKGLEWVSGINYNSGYTSYADSVKGRFTISRDNSKNTLYLQMNSLRAEDTAVYYCARGANWHDTALDYWGQGTLVTVSS VL: DIQMTQSPSSLSASVGDRVTITCRASQSISSYLNWYQQKPGKAPKLVIYAVTSRASGVPSRFSGSGSGTDFTLTISSLQPEDFATYYCQQSYESPLTFGGGTKVEIK	3.53 OD

Look at this binder and give its reported optical density. 367_B12 (antibody, V domains shown, Group III) VH: EVQLLESGGGLVQPGGSLRLSCAASGFTFSSYGMHWVRQAPGKGLEWVASINYNGGYKSYADSVKGRFTISRDNSKNTLYLQMNSLRAEDTAVYYCARGANWHDTHLDYWGQGTLVTVSS VL: DIQMTQSPSSLSASVGDRVTITCRASQSILSYVNWYQQKPGKAPKLVIYAATSLASGVPSRFSGSGSGTDFTLTISSLQPEDFATYYCQQSYDTPLTFGGGTKVEIK
3.75 OD

Look at this binder and give its reported optical density. 369_F08 (antibody, V domains shown, Group III) VH: EVQLLESGGGLVQPGGSLRLSCAASGFTFSDYGMHWVRQAPGKGLEWVSGINYNSGYTSYADSVKGRFTISRDNSKNTLYLQMNSLRAEDTAVYYCARGANWHDTALDYWGQGTLVTVSS VL: DIQMTQSPSSLSASVGDRVTITCRASQSILSYLNWYQQKPGKAPKLLIYAASSLQSGVPSRFSGSGSGTDFTLTISSLQPEDFATYYCQQSYDLPLTFGGGTKVEIK
3.1 OD
